Provide the reported percent inhibition of Factor 7 mRNA, relative to untreated control cells of each item.
Test system: human Factor 7 mRNA
Test Method Notes: Dose-dependent antisense inhibition of human Factor 7 in HepB3 cells, transfection with electroporation
Type: cell-based
Condition Info: 100 μM, 16 hours (Example 7, Table 15)
In the oligonucleotide strings, read from the 5' end, every base follows the letter of its sugar. An asterisk marks phosphorothioate; unmarked linkages are phosphodiester. Other units and linkages are bracketed, terminal groups are in braces. A string of capitals states the bases alone. e = 2'-O-(2-methoxyethyl) (MOE); [5mC] = 5-methylcytosine; d = 2'-deoxy (DNA)
Just the number please, in %, no unit attached.

Value of measured percent inhibition of Factor 7 mRNA, relative to untreated control cells for the entry 407939 (antisense eT*eG*e[5mC]*eA*eG*d[5mC]*d[5mC]*d[5mC]*dG*dG*d[5mC]*dA*d[5mC]*d[5mC]*d[5mC]*eA*eG*e[5mC]*eG*eA) [compound 407939] : 82

Value of measured percent inhibition of Factor 7 mRNA, relative to untreated control cells for the entry 422295 (antisense e[5mC]*eG*dA*dG*dT*dT*d[5mC]*dT*dG*d[5mC]*dA*dG*dG*dA*dG*e[5mC]*eG*eG*e[5mC]*e[5mC]) [compound 422295] : 80

Value of measured percent inhibition of Factor 7 mRNA, relative to untreated control cells for the entry 422087 (antisense e[5mC]*eA*eT*eG*e[5mC]*dA*dT*dG*dG*dT*dG*dA*dT*dG*d[5mC]*eT*eT*e[5mC]*eT*eG) [compound 422087] : 80
